TGI values by entry
- System: RXF-631 renal
- assayMethodText: NCI tumour cell line growth inhibition, 48 h
readoutKind: TGI

# compound, measurementTarget, result
rows = [
    ("COC1=CC(=O)C2C(C1=O)[C@@H]1c3ccccc3C[C@H]21 (stereo partly drawn)", "RXF-631 renal", "> 100 µM"),
    ("O=C(O)COc1ccc(O)c2c1C(=O)CCCC2=O", "RXF-631 renal", "> 100 µM"),
    ("CC(=O)NNc1nc(C)c(C(=O)NNC(=O)C(=O)Nc2c(C)cccc2C)s1", "RXF-631 renal", "> 100 µM"),
    ("COC[C@@H](N=CN1CCc2cc(OC)c(OC)cc2[C@@H]1C)C(C)(C)C", "RXF-631 renal", "> 100 µM"),
    ("COC(=O)C1C(O)CC(c2ccccn2)N(Cc2ccccc2)C1c1ccccn1 (stereo not drawn)", "RXF-631 renal", "> 100 µM"),
    ("O=C(c1ccc(Cl)cc1)c1ccc(OCCCCCCCCCCOc2ccc(C(=O)c3ccc(Cl)cc3)cc2)cc1", "RXF-631 renal", "> 100 µM"),
    ("CC[C@@]1(O)C[C@H](OC2CC(N(C)C)C(OC3CC(O)C(OC4CCC(=O)C(C)O4)C(C)O3)C(C)O2)c2c(cc3c(c2O)C(=O)c2c(O)cccc2C3=O)[C@H]1C(=O)OC (stereo partly drawn)", "RXF-631 renal", "0.0664 µM"),
    ("Cn1nc(-c2ccccc2)c(C(=O)/C=C/c2ccc(F)cc2)c(N2CCCCC2)c1=O", "RXF-631 renal", "53.6 µM"),
]

---

Overview of recorded TGI for various molecules
- Tested on: MDA-N
- assayMethodText: NCI tumour cell line growth inhibition, 48 h

# molecule, measurementTarget, TGI
records = [
    ("CC1OC2=N[C@@H]1C(=O)N[C@@H](C(C)C)C1=N[C@H](C(=O)N[C@@H](C(C)C)C3=N[C@H](C(=O)N[C@@H](C(C)C)C4=N[C@H](C(=O)N[C@H]2C(C)C)C(C)O4)C(C)O3)C(C)O1 (stereo partly specified)", "MDA-N", "> 10 µM"),
    ("CCOP(=O)(OCC)C(Nc1cccc(F)c1)c1ccccc1 (stereo unspecified)", "MDA-N", "> 100 µM"),
    ("O=CC(O)C(O)C(O)C(O)C(=O)NCCCCCCCCCCCCNC(=O)C(O)C(O)C(O)C(O)C=O (stereo unspecified)", "MDA-N", "> 100 µM"),
    ("C/C=C\\C(CC(=O)NCCc1cn(C(=O)OCc2ccccc2)c2ccccc12)CC(=O)OC (stereo unspecified)", "MDA-N", "> 100 µM"),
    ("O=[N+]([O-])c1ccc2nc(-c3ccccn3)c(-c3ccccn3)nc2c1", "MDA-N", "> 100 µM"),
    ("COc1nc(N(C)C)nc2c1n(C)c[n+]2C", "MDA-N", "> 100 µM"),
    ("CN(C)/N=C/c1cn(C)c(=O)n(C)c1=O", "MDA-N", "> 100 µM"),
    ("N=C1N(S(=O)(=O)c2ccccc2)[C@@H](Cc2ccccc2)[C@H](c2ccccc2)C1(c1ccccc1)c1ccccc1", "MDA-N", "> 100 µM"),
    ("COc1nc2c(c(=O)n1C)N[C@H]1[C@H](OC(C)=O)[C@@H](OC(C)=O)CO[C@H]1N2", "MDA-N", "> 100 µM"),
    ("COc1cc(/C=C\\c2ccc(C)cc2)cc(OC)c1OC", "MDA-N", "0.00521 µM"),
    ("CCOC(=O)c1c(N2CCCC2)ncn(-c2ccccc2)c1=S", "MDA-N", "> 100 µM"),
]

---

- System: SF-539 CNS
- assayMethodText: NCI tumour cell line growth inhibition, 48 h; in the data active = GI50 below about 0.43 µM; inactive = the rest
Outcome codes: active, inactive

# compound, className
rows = [
    ("O=C([CH-]C(=O)c1ccccc1)c1ccccc1.O=C([CH-]C(=O)c1ccccc1)c1ccccc1.O=C([CH-]C(=O)c1ccccc1)c1ccccc1.[Nd+3].[OH3+]", "inactive"),
    ("Cc1ccc(S(=O)(=O)NCCNC2=CC(=O)c3nc4ccccc4c4ccnc2c34)cc1", "inactive"),
    ("Clc1ccc(N2N=C(c3cccc(Nc4ccncc4)c3)CC2c2ccc3c(c2)OCO3)cc1 (centres undefined)", "inactive"),
    ("COc1cc2c(c(OC)c1OC)-c1ccc(N)c(=O)cc1[C@@H](NC(C)=O)CC2", "active"),
]

---

Catalogue of TGI values
- Tested on: HOP-62 NSCLC
- assayMethodText: NCI tumour cell line growth inhibition, 48 h

# molecule, TGI
data = [
    ("CCc1n(Cc2ccc3ccccc3n2)cc[n+]1Cc1ccc2ccccc2n1", "31.5 µM"),
    ("C=C1SC(=Nc2c(C)cc(C)cc2C)N(C(=O)c2sc3ccccc3c2Cl)C12CCCCC2", "> 100 µM"),
    ("O=C(Nc1cccs1)c1c(O)[nH]c(=S)[nH]c1=O", "> 100 µM"),
    ("Nc1nc(-c2ccccc2N=NN2CCCC2)nc2ccccc12", "5.11 µM"),
    ("CC1CCP(=O)(c2ccccc2)c2ccccc21 (stereo not given)", "> 100 µM"),
    ("COc1ccc(-c2oc3c(OC)c(OC)c(OC)c(O)c3c(=O)c2OC)cc1OC", "> 100 µM"),
    ("O=C(CCN1CCCC1)Nc1ccc2sc3ccccc3c(=O)c2n1", "19.6 µM"),
    ("Clc1ccc(Cc2nc3ccccc3nc2-c2cccc(Br)c2)cc1", "36.1 µM"),
    ("C1C[OH+]CC[OH+]CCNCC[OH+]CC[OH+]CCN1.[Cl-].[Pt+4]", "> 100 µM"),
    ("CCOC(=O)C1=C(C(=O)c2ccc(C)cc2)C(c2cccc([N+](=O)[O-])c2)C(C(=O)c2ccc(C)cc2)=C(C(=O)OCC)N1", "41 µM"),
    ("Cc1nc2c3c(ncn2n1)Oc1c(c(-c2ccccc2)nn1-c1ccccc1)C3c1ccc(Cl)cc1 (stereo not given)", "> 100 µM"),
    ("Cc1cccc2c1[nH]c1[nH]c(=O)[nH]c(=O)c12", "> 100 µM"),
    ("O=Cc1ccccc1OCCOc1cc(OCCOc2ccccc2C=O)c(OCCOc2ccccc2C=O)cc1OCCOc1ccccc1C=O", "> 100 µM"),
    ("Oc1ccc(C(c2ccc(O)cc2)c2ccc(Cl)cn2)cc1", "> 100 µM"),
    ("O=C(c1ccccc1)C1CCCCN1C(=O)c1ccccc1 (stereo not given)", "> 100 µM"),
    ("CC1OC(OCC2OC(Oc3c(-c4ccc(O)cc4)oc4cc(O)cc(O)c4c3=O)C(OC3OC(C)C(O)C(O)C3O)C(O)C2O)C(O)C(O)C1O (stereo not given)", "> 100 µM"),
    ("CCC(=O)O[C@H]1CC[C@H]2[C@@H]3CC[C@H]4CC(=O)[C@H](C)C[C@]4(C)[C@H]3CC[C@]12C", "> 100 µM"),
    ("O=C(O)C1C2CCC(O2)C1C(=O)N1CCCCC1 (stereo not given)", "35.8 µM"),
    ("c1ccc(CCN2CCc3[nH]c4ccccc4c3C2)cc1", "45.6 µM"),
    ("O=C(/C=C/c1ccccc1)CC1OC(=O)c2ccccc21 (stereo not given)", "> 100 µM"),
    ("CCOC(=O)C1(C(=O)OCC)[C@H](c2ccccc2)C2=NO[C@@H]3CCC[C@H]1[C@H]23", "> 100 µM"),
    ("O=C(c1ccc2ccccc2c1)c1c(C(F)(F)F)n([O-])c2cc(F)c(F)cc2[n+]1=O", "16.8 µM"),
    ("COC[C@@H](N=CN1CCc2cc(OC)c(OC)cc2[C@@H]1C)C(C)(C)C", "> 100 µM"),
    ("O=C(Nc1ccc(Cl)cc1Cl)C(=O)C(C(=O)c1ccc2ccccc2c1)C1OC(=O)c2ccccc21 (stereo not given)", "27.8 µM"),
    ("CC1(C)CC[C@H](Nc2ncc(C(F)(F)F)c(-c3c[nH]c4c(P(C)(C)=O)c(C#N)ccc34)n2)CN1", "6.69 µM"),
    ("Cc1ccc(C(=O)N/N=C(\\N=Nc2cccc(Cl)c2)c2ccc(N(CCC#N)CCC#N)cc2C)cc1", "> 100 µM"),
    ("FC(F)(F)c1cc(-c2nnc3n2N=C(N2CCCC2)CS3)cc(C(F)(F)F)c1", "> 50 µM"),
    ("O=C(O)COc1ccc(O)c2c1C(=O)CCCC2=O", "> 100 µM"),
    ("COc1cc2nc(-c3ccc4ccccc4c3)[nH]c(=O)c2cc1OC", "84.3 µM"),
    ("C/C=C\\C(CC(=O)NCCc1cn(C(=O)OCc2ccccc2)c2ccccc12)CC(=O)OC (stereo not given)", "> 100 µM"),
    ("Nc1ncnc2c1ncn2C1CCC(COS(N)(=O)=O)C1 (stereo not given)", "> 100 µM"),
    ("COC(=O)[C@H]1[C@@H](C(C)C)O[C@@H](C(C)C)O[C@H]1C(F)(F)F", "> 100 µM"),
    ("CCOC(=O)C1=C(c2ccccc2)N(C)c2ccccc2S1", "> 100 µM"),
    ("COc1ccccc1/C=C1\\CCC(CCN(C)C)(C2=CCCC2)C1=O (stereo not given)", "34.5 µM"),
    ("NC(=S)N/N=C\\c1ccc(OCc2cccc(COc3ccc(/C=N/NC(N)=S)cc3)n2)cc1", "> 100 µM"),
    ("COc1cccc(CC(C)NCC(O)c2ccc(O)c(O)c2)c1 (stereo not given)", "> 100 µM"),
    ("Cc1cc(C)c(P2C(=C(O[Si](C(C)C)(C(C)C)C(C)C)C(C)(C)C)C2(c2ccccc2)c2ccccc2)c(C)c1 (stereo not given)", "> 100 µM"),
    ("Cc1ccc(C(C)(C)C[P+](C)(c2ccccc2)c2ccccc2)cc1", "75.9 µM"),
    ("Cc1ccc(S(=O)(=O)NCCNC2=CC(=O)c3nc4ccccc4c4ccnc2c34)cc1", "61.3 µM"),
    ("OC1c2ccccc2C2(O)C1C(c1ccccc1)C(c1ccccc1)C2(O)c1ccccc1 (stereo not given)", "28.2 µM"),
]
